Reference source: ChEMBL document CHEMBL1201862

Each item that follows carries a reported GI50.
# Test system: M14
# Assay: NCI tumour cell line growth inhibition, 48 h
The source made the active and inactive calls. Cut-off read from the data, not from the text of the source: active = GI50 up to about 1.1 µM and inactive = higher.

For orientation, consider the following solved cases.
>  <Molecule>
O=c1c(O)c(-c2ccc(O)c(O)c2)oc2cc(O)cc(O)c12 [QUERCETIN]

>  <System Under Test>
M14

>  <GI50>
> 100 µM (inactive)

$$$$
>  <Molecule>
Cn1ccnc1Oc1ccc(Cl)cc1

>  <System Under Test>
M14

>  <GI50>
13.7 µM (inactive)

$$$$
>  <Molecule>
COc1ccc([S+]([O-])Cc2cc(OC)c(OC)c(OC)c2)cc1 (stereo unspecified)

>  <System Under Test>
M14

>  <GI50>
35.2 µM (inactive)

$$$$
>  <Molecule>
N#Cc1nc(Nc2cccc3ccccc23)sc1N

>  <System Under Test>
M14

>  <GI50>
39.9 µM (inactive)

$$$$
>  <Molecule>
CS(=O)(=O)N(CCC#N)c1ccc(/C=N/NC(=O)CC(=O)Nc2cccc(Cl)c2)cc1

>  <System Under Test>
M14

>  <GI50>
> 100 µM (inactive)

$$$$

Recorded GI50 for `CCOC(=O)C/C(N)=C(\C#N)C(=O)OCC` on M14 was > 100 µM (inactive)

----------
# System: SF-268
# Assay: NCI tumour cell line growth inhibition, 48 h
Active and inactive are the calls of the source. Cut-off read from the data, not from the text of the source: active = GI50 up to about 1.1 µM and inactive = higher.
Each item that follows carries a reported GI50.

For orientation, consider the following solved cases.
>  <Molecule>
O=C(O)/C=C(/C(=O)O)C12CCN3CC4=CCOC5CC(=O)NC1C5C4CC32 (stereo unspecified)

>  <Measured Endpoint>
GI50

>  <Result>
> 100 µM (inactive)

$$$$
>  <Molecule>
O=C1CC(Nc2ccccc2)c2c(Cl)sc(Cl)c21 (stereo unspecified)

>  <Measured Endpoint>
GI50

>  <Result>
0.778 µM (active)

$$$$
>  <Molecule>
O=C(O)c1ccccc1Cc1ccco1

>  <Measured Endpoint>
GI50

>  <Result>
> 100 µM (inactive)

$$$$
>  <Molecule>
COc1cc2c(cc1OC)C1(c3ccccc3)CN(C2)Cc2cc(OC)c(OC)cc21

>  <Measured Endpoint>
GI50

>  <Result>
49.9 µM (inactive)

$$$$
>  <Molecule>
COc1ccccc1NC(=O)/C(Cc1nc2ccc([N+](=O)[O-])cc2nc1O)=N\NC(=O)C[N+](C)(C)C

>  <Measured Endpoint>
GI50

>  <Result>
> 100 µM (inactive)

$$$$

Measured GI50, O=C(c1ccccc1)[C@H]1Nc2ccc(Cl)cc2C2c3ccccc3CC21 (stereo partly specified) : > 100 µM (inactive)

Measured GI50, CC(C)(C)OC(=O)NCCCCC(NC(=O)c1ccccc1)C(N)=O (stereo unspecified) : > 100 µM (inactive)

Measured GI50, O=c1[nH]cnc2c1nnn2C1C=C(CO)C(O)C1O (stereo unspecified) : 74.1 µM (inactive)

Measured GI50, CNc1ncnc2c1ncn2C1C=CC(COS(N)(=O)=O)C1 (stereo unspecified) : > 100 µM (inactive)

Measured GI50, `O=C(Nc1ccc(C(F)(F)F)cc1[N+](=O)[O-])c1cccnc1` : 4.07 µM (inactive)

Measured GI50, CC(C)CC(C#CCCOC(=O)c1ccccc1)OC(=O)c1ccccc1 (stereo unspecified) : > 10 µM (inactive)

Measured GI50, C=CCOc1ccc(C2C(C(=O)OCC)C(=O)CC(C)(O)C2C(=O)OCC)cc1OC (stereo unspecified) : > 100 µM (inactive)

----------
# System: SF-268
# Assay: NCI tumour cell line growth inhibition, 48 h
Active and inactive are the calls of the source. Cut-off read from the data, not from the text of the source: active = GI50 up to about 1.1 µM and inactive = higher.
API: response.call in 1.0 = active, 0.0 = inactive

Below, 5 molecules whose answers are already recorded.
>  <Molecule>
Cc1nn(CN2CCN(C)CC2)c(=S)n1/N=C/c1ccc(-c2ccc(Cl)cc2Cl)o1

>  <Class Label>
0.0

$$$$
>  <Molecule>
CCOC(=O)C/C(N)=C(\C#N)C(=O)OCC

>  <Class Label>
0.0

$$$$
>  <Molecule>
CC(=O)OC1=C(c2ccccc2)S(=O)(=O)c2ccccc21

>  <Class Label>
0.0

$$$$
>  <Molecule>
COC(=O)c1c2c(cc3c1CC1(Cc4cc5c(cc4C1)CCC5)C3)CCC2

>  <Class Label>
0.0

$$$$
>  <Molecule>
Nc1nc(=O)n(CC(O)CO)s1 (stereo not given)

>  <Class Label>
0.0

$$$$

Called result for `CCN(CC)CCOc1ccc(/C=C(\C#N)c2ccc(OCCN(CC)CC)cc2)cc1`
0.0

Called result for `CCCCCCCCCCCC/C=C\CC[C@@H](O)[C@H](O)CC[C@H](O)[C@@H]1CC[C@@H](CCCCCCCC2=C[C@H](C)OC2=O)O1`
0.0

Called result for Cc1ccc(S(N)(=O)=O)cc1 [P-TOLUENESULFONAMIDE]
0.0

----------
Each item that follows carries a reported GI50.
# System: ACHN
# Assay: NCI tumour cell line growth inhibition, 48 h
The source made the active and inactive calls. Rule as the data show it: active = GI50 up to about 1.1 µM and inactive = higher.

For orientation, consider the following solved cases.
>  <Molecule>
COc1cc2c(cc1O)[C@H](C)C(c1ccccc1OC)O2 (some centres undefined)

>  <Result>
4.34 µM (inactive)

$$$$
>  <Molecule>
O=S(=O)(c1ccccc1)c1ccc(-c2nc(-c3ccc4c(c3)Sc3ccccc3S4)cs2)cc1

>  <Result>
38.7 µM (inactive)

$$$$
>  <Molecule>
C/C(=N\NC(=S)N1CCN(c2ccccn2)CC1)c1ncccn1

>  <Result>
0.0693 µM (active)

$$$$
>  <Molecule>
COc1cc2ccc(=O)oc2cc1O [SCOPOLETIN]

>  <Result>
> 100 µM (inactive)

$$$$

The record that follows has no GI50 shown yet.
Measured GI50, `Cc1ccc(C(=O)N/N=C(\N=N\c2cccc(Cl)c2)c2ccc(N(CCC#N)CCC#N)cc2C)cc1` : > 100 µM (inactive)

----------
# Tested on: BT-549
# Assay: NCI tumour cell line growth inhibition, 48 h
The source made the active and inactive calls. No stated cut-off is given here; in the data, active = GI50 up to about 1.1 µM and inactive = higher.
Measured Endpoint: GI50

Measured GI50, `Cc1cc(O)c2c(c1O)C(=O)c1cccc(O)c1C2=O` : > 100 µM (inactive)

----------
# Test system: LOX IMVI
# Assay: NCI tumour cell line growth inhibition, 48 h
Activity calls are given as the source filed them. Rule as the data show it: active = GI50 up to about 1.1 µM and inactive = higher.
API: response.call in active, inactive

>  <Compound>
CC(=O)OC1c2ccccc2CCCCCCC12OCCO2 (stereo not given)

>  <Class Label>
inactive

$$$$
>  <Compound>
Nc1nc(-c2ccco2)cc(-c2ccc(CO)o2)n1

>  <Class Label>
inactive

$$$$
>  <Compound>
CCN1CCN=c2c3cc(OC)ccc3n3cnc4ccc1c2c43

>  <Class Label>
active

$$$$
>  <Compound>
Cc1cn(C2CC(O)C(COP(=O)(O)OC3CC(n4c[n+]([BH2-]C#N)c5c(=O)[nH]c(N)nc54)OC3CO)O2)c(=O)[nH]c1=O (stereo not given)

>  <Class Label>
inactive

$$$$

Called result for `O=C1C(Cl)=C(N2CCN(c3ccccn3)CC2)C(=O)c2c(O)ccc(O)c21`
active

----------
# System: MOLT-4
# Assay: NCI tumour cell line growth inhibition, 48 h
The source made the active and inactive calls. No stated cut-off is given here; in the data, active = GI50 up to about 1.1 µM and inactive = higher.
Each item that follows carries a reported GI50.

For orientation, consider the following solved cases.
>  <Compound>
N#CCCN(CCC#N)CCN(CCN(CCC#N)CCC#N)CCN(CCC#N)CCC#N

>  <GI50>
> 100 µM (inactive)

$$$$
>  <Compound>
CC(C)C1NC(=O)[C@H](C)OC(=O)[C@@H](C(C)C)NC(=O)[C@@H](C)OC(=O)C(C(C)C)NC(=O)[C@H](C)OC1=O (some centres not stated)

>  <GI50>
> 100 µM (inactive)

$$$$
>  <Compound>
C=CCOCCCC(=O)C(=[N+]=[N-])C(=O)OC

>  <GI50>
> 100 µM (inactive)

$$$$
>  <Compound>
COc1cc2ccc(=O)oc2cc1O

>  <GI50>
28.8 µM (inactive)

$$$$
>  <Compound>
C(=N\c1nc2cc3sc(/N=C/c4ccccc4)nc3cc2s1)/c1ccccc1

>  <GI50>
9.75 µM (inactive)

$$$$
>  <Compound>
CC(=O)O[C@H]1CCC2[C@@H]3CC[C@]4(C)CC(=O)C=C[C@]4(C)C3CC[C@@]21C (some centres not stated)

>  <GI50>
23.2 µM (inactive)

$$$$
>  <Compound>
CC(=O)OC1c2ccccc2CCCCCCC12OCCO2 (configuration not stated)

>  <GI50>
60.3 µM (inactive)

$$$$
>  <Compound>
CCOC(=O)CCC(C(=O)OCC)n1nc2ccc(Nc3c(C)[n+]([O-])c4cc(F)c(OCC)cc4[n+]3[O-])cc2n1 (configuration not stated)

>  <GI50>
> 100 µM (inactive)

$$$$

Recorded GI50 for `Cc1nnc2sc(Cc3cnc(N)s3)nn12` on MOLT-4 was > 100 µM (inactive)

Recorded GI50 for `N=C(N)NS(=O)(=O)c1ccc(Nc2c3ccccc3nc3c(C(=O)N4CCN(CCO)CC4)ccc(Cl)c23)cc1` on MOLT-4 was > 100 µM (inactive)

Recorded GI50 for `S=C(Nc1ccc2c(c1)oc1ccccc12)c1cccs1` on MOLT-4 was > 100 µM (inactive)

Recorded GI50 for Cc1cn(C2CC(N)C(C(=O)O)O2)c(=O)[nH]c1=O (configuration not stated) on MOLT-4 was > 100 µM (inactive)
